Can you tell me SPOT signal as a fraction of Bim BH3's signal on the same receptor and array for the items I'm about to list?
# system: T1, Mcl-1, Q07820
# T1 chain: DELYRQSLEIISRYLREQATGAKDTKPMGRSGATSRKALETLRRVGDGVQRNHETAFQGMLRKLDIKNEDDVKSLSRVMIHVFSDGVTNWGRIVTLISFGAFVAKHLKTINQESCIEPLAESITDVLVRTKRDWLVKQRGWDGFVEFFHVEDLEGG
# experimentSummary: peptide SPOT array, c-Myc-tagged receptor at 1 uM or 100 nM, anti-c-Myc-Cy3
Give bare numbers.

The cases that follow already have their SPOT signal as a fraction of Bim BH3's signal on the same receptor and array on record.
{"columns": ["binder", "observedValue"],
 "data": [
  ["KGTAVAICRRDGIFGDTEDVAGKAYT [ATP2A3]", 0.08],
  ["YGKVRKAASSIDQFSIRLGIFLRRYP [GOLGA5]", 0.29]
]}

Task: Please report the recorded SPOT signal as a fraction of Bim BH3's signal on the same receptor and array for SMRRNAMGVGDVFEADLFTTRHISHW [DNAH10] .
Result: 0.09

// provenance: paper PMC4072508
